// reported TGI for each item listed
Test system: NCI-H460 lung
Experiment: NCI tumour cell line growth inhibition, 48 h

>  <smiles representation>
O=C(Nc1ccc(-c2nc3cc4ccccc4cc3[nH]2)cc1)c1cccc(Br)c1

>  <TGI>
13 µM

$$$$
>  <smiles representation>
CN1CCCN2CCN(C)CCN(CC1)CC2

>  <TGI>
> 100 µM

$$$$
>  <smiles representation>
C=C1C(=O)O[C@@H]2C[C@@H]1CC[C@]1(C)O[C@H]1CC[C@@]1(C)O[C@@H]1CC[C@@]2(C)O

>  <TGI>
> 100 µM

$$$$

====

Tested on: PC-3 prostate
Assay: NCI tumour cell line growth inhibition, 48 h

>  <compound>
CCN1CC2=C(N=c3s/c(=C\c4ccc(Cl)cc4)c(=O)n3C2c2ccc(Cl)cc2)/C(=C/c2ccc(Cl)cc2)C1 (stereo not drawn)

>  <TGI>
> 100 µM

$$$$
>  <compound>
Cc1ccc(/C=C2\CN(C)CC3=C2OC(N)=C(C#N)C3c2ccc(C)cc2)cc1 (stereo not drawn)

>  <TGI>
> 45.1 µM

$$$$
>  <compound>
CCOC(=O)CC(=O)NC1CC2CCC1(C)C2(C)C (stereo not drawn)

>  <TGI>
> 100 µM

$$$$

====

// reported TGI for each item listed
System: CCRF-CEM leukemia
Assay: NCI tumour cell line growth inhibition, 48 h

>  <molecule>
Oc1ccc(C(c2ccccc2)(c2ccccc2)c2ccccc2)cc1

>  <TGI>
39.5 µM

$$$$
>  <molecule>
COc1cc(NS(C)(=O)=O)ccc1NCc1cnc2ccc3[nH]c(C)ccc3c12

>  <TGI>
67.2 µM

$$$$
>  <molecule>
Cc1ccc(C)c(NC(=O)C(=O)C2C(=O)C3=C(CC2(C)C)Nc2ccccc2S3)c1 (centres undefined)

>  <TGI>
> 100 µM

$$$$
>  <molecule>
Clc1ccc(-c2nn3c(CCCCCCCCc4nnc5sc(-c6ccc(Cl)cc6)nn45)nnc3s2)cc1

>  <TGI>
60.3 µM

$$$$
>  <molecule>
CCCCCCCCC[C@@H]1C[C@@H]2CCC3C(C(=O)OC)=C(C)NC(=N1)N32 (some centres undefined)

>  <TGI>
> 100 µM

$$$$
>  <molecule>
C/C(CN1C(=O)c2ccccc2C1=O)=N\NS(=O)(=O)c1cccc([N+](=O)[O-])c1

>  <TGI>
> 100 µM

$$$$
>  <molecule>
CC1=CC=NN2C(=O)[C@H](C)C2C1 (some centres undefined)

>  <TGI>
> 100 µM

$$$$
>  <molecule>
O=C(/C=C/c1ccco1)c1ccc(Nc2nc(Nc3ccc(F)cc3)nc(Nc3ccc(Cl)cc3)n2)cc1

>  <TGI>
> 94.4 µM

$$$$
>  <molecule>
CN(C)c1nc(N(C)C)nc(N(C)C)n1

>  <TGI>
> 150 µM

$$$$

====

// reported GI50 for each item listed
System: MCF7 breast
Assay: NCI tumour cell line growth inhibition, 48 h

>  <molecule>
COc1ccc(-c2ccc(C3CC(c4ccc(O)cc4)=NN3)o2)c([N+](=O)[O-])c1 (centres undefined)

>  <target entity>
MCF7 breast

>  <GI50>
24400 nM

$$$$
>  <molecule>
C=C1C(=O)O[C@H]2[C@H]1CC/C(COC(=O)C(=O)c1c[nH]c3ccccc13)=C\CC[C@@]1(C)O[C@@H]21

>  <target entity>
MCF7 breast

>  <GI50>
2160 nM

$$$$
>  <molecule>
O=C(Nc1ccc(-c2nc3cc4ccccc4cc3[nH]2)cc1)c1cccc(Br)c1

>  <target entity>
MCF7 breast

>  <GI50>
1970 nM

$$$$
>  <molecule>
CCN1C(=O)C/C(=C\C(C)=O)Nc2ccccc21

>  <target entity>
MCF7 breast

>  <GI50>
> 100000 nM

$$$$

Hello, the source for this data is PubChem BioAssay (NCI), in case you need it.
